For each of the molecules below, state its IC50.
System: Ovcar-3 ovarian carcinoma cells
PROCEDURE SUMMARY: Sulforhodamine B cytotoxicity, Ovcar-3
Type: cell-based
CONDITION SET: Table 7, Ovcar-3; read-out: Cytotoxicity (IC50)
# value in µM; strip the unit string

Value wanted: IC50 (Ovcar-3 ovarian carcinoma cells) of entry CC(COC(=O)N1c2ccccc2C23OC24CCCC3C#CC=CC#CC14)S(=O)(=O)c1ccccc1 (centres unmarked) [Compound 428]
13

Value wanted: IC50 (Ovcar-3 ovarian carcinoma cells) of entry CC(COC(=O)N1c2ccccc2C23OC24CCCC3C#CC=CC#CC14)S(=O)(=O)c1ccccc1 (centres unmarked) [Compound 427]
3.1
